assay.target: Dual specificity protein phosphatase 3 (Homo sapiens)
measurement.protocol: VHR1 phosphatase inhibitors, biochemical (AID 1878)
details: recombinant VHR phosphatase, fluorogenic substrate; at 13.3 µM
The campaign covered roughly 1,000 compounds. About 200 (20%) were called active. No stated cut-off is given here; in the data, active means inhibition above about 55%; inactive means the rest. Only a sample is shown. Entries with a potency or affinity are not part of this list.
Answer with one of the outcomes t for active, f for inactive

Consider the worked cases shown below.
> print(dat)
                                   molecule  discrete.label
1        O=C(CCNS(=O)(=O)c1ccccc1)N1CCCCCC1               f
2  CC1CCCCN1CCCNC(=O)CN1C(=O)c2cccnc2Oc2ccc(Cl)cc21 (stereo not given)               f
3  CCCCN(CCCC)CCNC(=O)CN1C(=O)COc2ccc(S(=O)(=O)N3CCOCC3)cc21               f
4  CCCCn1c(N)c(N(CCOC)C(=O)c2cc(S(=O)(=O)N3CCCCC3)ccc2Cl)c(=O)[nH]c1=O               f
5  CCN1CCN(CCCNC(=O)CS(=O)(=O)Cc2nc(-c3ccccc3C)oc2C)CC1               f

Query: Recorded call for `Cc1ccc(-n2cccc2/C=C2\C(=N)N3N=C(c4ccco4)SC3=NC2=O)cc1` ?
Reply: t

Query: Assay outcome for `Oc1ccc(/C=N/Nc2ncc(Cl)cc2Cl)cc1` : what was it?
Reply: f

Query: Kindly provide the recorded test outcome for the following molecule: CCCn1c2ccccc2c2cnn(CC(=O)NCCCN3CCCC(C)C3)c(=O)c21 (stereo not given)
Reply: f

Query: Tell me the recorded outcome of this test for `c1ccc(-c2nnsc2-c2ccccc2)cc1` .
Reply: f

Query: Field: outcome | Entry: Cc1c(C)n(C)c2ccc(C(=O)NCCCN3CCCCC3C)cc12 (stereo not given)
Reply: f

====

assay.target: Dual specificity protein phosphatase 3 (Homo sapiens) (UniProt P51452)
Sequence (P51452 whole entry, looked up): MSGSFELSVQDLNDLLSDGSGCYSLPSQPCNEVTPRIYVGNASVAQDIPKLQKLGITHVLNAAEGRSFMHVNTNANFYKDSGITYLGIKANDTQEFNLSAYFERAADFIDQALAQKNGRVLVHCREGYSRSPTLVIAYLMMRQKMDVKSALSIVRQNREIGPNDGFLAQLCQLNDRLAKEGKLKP
measurement.protocol: VHR1 phosphatase inhibitors, biochemical (AID 1878)
details: recombinant VHR phosphatase, fluorogenic substrate; at 13.3 µM; stronger effect = higher value
Out of some 1,000 compounds screened, about 200 (20%) were called active. These entries were drawn from the full list. Potency and affinity values are given separately.
inhibition values, listed per item
Answer with a number only, understood to be in %.

Some entries whose results are on file:
> print(dat)
                                   compound  numeric.value
1  Cc1c(C)c2ccc(O[C@@H]3O[C@H](CO)[C@H](O)[C@H](O)[C@H]3O)c(C)c2oc1=O           -3.5
2  Cn1nc(-c2ccc(C(=O)Nc3ccc(F)cc3)cc2)c2ccccc2c1=O           96.2
3  CN(C)N1C(N)=C(C#N)C(c2cccc(Cl)c2)C2=C1CCCC2=O (configuration not stated)            0.6
4          CC1=CC(=C2C=CC(=O)C=C2)C=C(C)N1C            4.7

Please fill in: inhibition reported for COc1cc(C2Nc3ccccc3NC3=C2C(=O)CC(C)(C)C3)cc(OC)c1OC (configuration not stated) = -7.9

Looking up `O=C(Nc1ccccc1-c1nnn(CC(=O)N2CCOCC2)n1)c1ccc(F)cc1` , I see its inhibition listed as -1.6

Form: compound = `CCN(CC)c1ccc(NC(=O)c2c(C)noc2C)cc1` ; inhibition = -3.1

Just so you know, measured inhibition for `Cn1c2ccccc2c(=O)c2c(=O)n(C3CCCCCC3)c(C3CCCCC3)nc21` came out at 95.7

The compound listed as `COC(=O)[C@@]1(Cc2ccc(F)cc2)[C@H]2c3cc(C(=O)N4CCCC4)n(CCc4ccccn4)c3C[C@H]2CN1C(=O)c1ccccc1` has a reported inhibition of -0.9

Quick note, inhibition for `Cc1ccc(OCCCCN2CCCCC2)c(C)c1` landed at 5.4

inhibition measured on `O=C(NCc1ccc(F)cc1)C1CCN(S(=O)(=O)c2cccc3nonc23)CC1` = 4.8

====

Here, each record is paired with measured inhibition data.
assay.target: Dual specificity protein phosphatase 3 (Homo sapiens)
measurement.protocol: VHR1 phosphatase inhibitors, biochemical (AID 1878)
details: recombinant VHR phosphatase, fluorogenic substrate; at 13.3 µM; stronger effect = higher value
In all, about 1,000 compounds went through this assay and about 200 (20%) were called active. These entries were drawn from the full list. Entries with a potency or affinity are not part of this list.

Assay Dual specificity protein phosphatase 3 (Homo sapiens), sample `COc1ccc(C)c(NC(=O)NCCc2cnc[nH]2)c1` , inhibition read: 7.6% (inactive)

Recorded inhibition for CC1CCCN(CCCNS(=O)(=O)c2ccc3c(c2)CCN3C(=O)C2CC2)C1 (stereo unspecified) on Dual specificity protein phosphatase 3 (Homo sapiens) was -6.7% (inactive)

The reported Dual specificity protein phosphatase 3 (Homo sapiens) inhibition of `c1ccc(CCNC2CCCCCC2)cc1` is 14.2% (inactive)

Lab note: compound `CCOc1cc2[nH]c(=S)n(Cc3ccc(C(=O)NCCCOC)cc3)c(=O)c2cc1OCC` tested on Dual specificity protein phosphatase 3 (Homo sapiens); recorded inhibition was 11.5% (inactive)

I looked up `CCCCN(C)CCNC(=O)CCn1nc(-c2ccc(C)cc2)ccc1=O` and its inhibition for Dual specificity protein phosphatase 3 (Homo sapiens) was 49.7% (inactive)

====

assay.target: Dual specificity protein phosphatase 3 (Homo sapiens)
measurement.protocol: VHR1 phosphatase inhibitors, biochemical (AID 1878)
details: recombinant VHR phosphatase, fluorogenic substrate; at 13.3 µM; stronger effect = higher value
Out of some 1,000 compounds screened, about 200 (20%) were called active. Not all results are given here. Entries with a potency or affinity are not part of this list.
result.type: inhibition (%)
Could you give me the number in %? Just the number is fine.

> print(dat)
                                chem.smiles  unit.tag  numeric.value
1  CCCCN(CC)CCNC(=O)C1CCN(S(=O)(=O)c2cccc3nsnc23)CC1         %            8.4

Item: `O=C(Cn1c(=O)c2cccn2c2ccccc21)NCCCN1CCCCC1` | inhibition: 2

Reported inhibition for `CC(=O)c1cccc(CN2CCC(CO)(CCOc3ccccc3)CC2)c1` was -26.7

inhibition for `CN1CC(=O)N2Cc3[nH]c4ccccc4c3C[C@H]2C1=O` is 11.2

Summary for this compound, `COCCCN(CC(=O)Nc1ccc(N2CCOCC2)cc1)S(=O)(=O)c1ccc(Cl)cc1` : inhibition is -3.7

====

assay.target: Dual specificity protein phosphatase 3 (Homo sapiens)
measurement.protocol: VHR1 phosphatase inhibitors, biochemical (AID 1878)
details: recombinant VHR phosphatase, fluorogenic substrate; at 13.3 µM; stronger effect = higher value
The campaign covered roughly 1,000 compounds. About 200 (20%) were called active. Not all results are given here. Results with a measured potency or affinity are listed apart.
result.type: inhibition (%)
Write the number in % without appending the unit.

Some solved entries appear below for comparison.
> print(dat)
                                   compound  result.type  unit.tag  numeric.value
1  COC(=O)C1CCN(Cc2c(C(=O)N3C[C@@H](C)O[C@@H](C)C3)nc3ccc(Cl)cn23)CC1   inhibition         %             19
2             O=C(Nc1ccccc1F)N1CCc2ccccc2C1   inhibition         %           -0.6
3                    Clc1ccc2ccc3cccnc3c2n1   inhibition         %          -16.7

Record summary for `O=C(N/N=C/c1cccnc1)c1cccc(NC(=O)c2ccc(Cl)cc2)c1` : reported inhibition = 92.9

Lookup result for `O=S1(=O)N(Cc2ccccc2F)CCCN1Cc1c(F)cccc1Cl` ; measured inhibition: 44.5

The reported inhibition of the compound `CCOC(=O)c1c(C)n(CCOc2ccccc2)c2ccc(O)cc12` was 14.4

Memo: `O=C(CSc1nc(-c2ccccc2)nc2c1Cc1ccccc1O2)Nc1ccc(C(=O)O)cc1` , reported inhibition: 98.8

inhibition reading for `O=C(CNCCc1ccccc1)Nc1ccc(C(=O)N2CCCCC2)cc1` : 3.1

Documented inhibition of `Cc1cccc(NC(=O)COc2ccc(/C=C\c3[nH]c(=O)[nH]c(=O)c3[N+](=O)[O-])cc2)c1` : 98.7

Looking up `COc1ccc(Nc2nc(-c3sc(C)nc3C)cs2)c(OC)c1` , I found its inhibition recorded as 23

Per the record, `CN(C)CCNC(=O)c1cccc(S(=O)(=O)Nc2ccc(F)cc2)c1` has inhibition of -5.8

The compound listed as Cc1ccc(C(C(=O)NC2CCCC2)N(Cc2ccc(F)cc2)C(=O)c2snc(C(N)=O)c2N)o1 (configuration not stated) shows inhibition equal to 10.6

For reference, reported inhibition for `CC(C)(C)NC(=O)N1CCN(c2ncccc2C(F)(F)F)CC1` stands at -1.3

The compound listed as `Cc1ccc(/C=N/N(C)C2=NS(=O)(=O)c3ccccc32)cc1` has a reported inhibition of 21.9
